Would you mind telling me the reported self-cleavage of each entry?
B1: Twister Ribozyme (parent)
chain: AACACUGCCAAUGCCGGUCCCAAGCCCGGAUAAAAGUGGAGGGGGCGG

- Variants of: B1
- Run description: self-cleavage, relative activity (ratio to wild type); higher = more cleavage; co-transcriptional
Give a plain numeric answer without units written out.

Task item: Report self-cleavage, nothing else, for this variant: A2U G42U
Reply: 0.172

Task item: Please give measured self-cleavage of the following entry: C27A U37G
Reply: 0.0964

Task item: Please give measured self-cleavage of the following entry: C26U G29C
Reply: 0.0821

Task item: Give the reported value of self-cleavage for this record: C9U C26A
Reply: 0.0658

Task item: Name the recorded self-cleavage of the variant listed here: C9U C19A
Reply: 0.0695

Task item: Please supply the value of reported self-cleavage for the item A10U A40G
Reply: 0.191

Task item: Quick one: give measured self-cleavage for A1C G7U
Reply: 0.149

Task item: For the variant G16U A33G , give its reported self-cleavage.
Reply: 0.597

Task item: Supply measured self-cleavage of G17C C46G in your reply.
Reply: 0.139

Task item: Annotate the variant C8G C46G with its measured self-cleavage.
Reply: 0.344

Task item: Input A4C G45A , output reported self-cleavage.
Reply: 0.145

Task item: Supply recorded self-cleavage for C8A A22G here.
Reply: 0.107

Task item: Please give the documented self-cleavage of U18C C20A
Reply: 0.0953

Task item: Recall and state the measured self-cleavage for A11G G48C .
Reply: 1.09

Task item: Please indicate self-cleavage recorded for A22U G38U
Reply: 0.353

Task item: Return reported self-cleavage. Input variant: U6G C26A
Reply: 0.0837

Task item: Give me measured self-cleavage, please, for this variant: C5U U31G
Reply: 0.65

Task item: State, in one line, measured self-cleavage of A4C A30U
Reply: 0.189

Task item: Specify reported self-cleavage for the variant shown: G7U G13U
Reply: 0.0485

Task item: Give the reported self-cleavage for this variant. C3A G29C
Reply: 0.184

Task item: Provide measured self-cleavage value, entry: C26G A33C
Reply: 0.129

Task item: Kindly indicate its recorded self-cleavage. Item: A11G G47A
Reply: 0.812

Values from the RNAGym collection of RNA variant scans (doi:10.7554/elife.80360)
